Reference for the values: ChEMBL document CHEMBL4673200

Tested on: Mycobacterium tuberculosis
experimental_protocol: Antitubercular activity against Mycobacterium tuberculosis H37Rv ATCC 27294 cultured in 7H12 media assessed as reduction in bacterial growth incubated for 7 days by resazurin dye fluorescence based assay
Type: functional
particulars: H37Rv ATCC 27294, 168 h, time 7 day
Measured MIC accompanies every entry in the list below.

>>> observed_result("N#Cc1cc([N+](=O)[O-])ccc1Oc1ccc(Cl)c(Cl)c1")
"> 50 µM"

Task: Tell me MIC reported for CCOC(=O)c1sc2c([N+](=O)[O-])cc(C(F)(F)F)cc2[n+]1[O-]
Output: > 5 µM

Task: Determine its reported MIC: O=C(NCc1ccc2c(c1)CCO2)c1sc2c([N+](=O)[O-])cc(C(F)(F)F)cc2[n+]1[O-]
Output: 0.01 µM

Task: Fill in reported MIC for this entry: N#Cc1cc([N+](=O)[O-])ccc1N1CCC(Cc2ccccc2)CC1
Output: > 5 µM

Task: Consider the molecule N#Cc1cc([N+](=O)[O-])ccc1Nc1ccc(OC2CCNCC2)cc1 . State its measured MIC.
Output: > 5 µM
